molecular target: Syk (GST:Syk 6-242 fusion protein) (Homo sapiens, UniProt P43405); construct: Recombinant GST:Syk 6-242 fusion protein [34] was immobilized on an ELISA plate; made in house; assay: ELISA-based Antibody Displacement Assay (binding of scFv G4G11 to Syk); conditions: 10 µM small molecule, 100 nM G4G11
Could you please mark Criterion met for values of Antibody Inhibition below 50% and Criterion not met for values at or above it?

Examples with answers:
Compound: COc1ccc(S(=O)(=O)N(CCc2ccccc2)CC(=O)Nc2ccc(C(N)=O)cc2)cc1 [compound 6498669]
Classification: Criterion not met
--
Compound: O=C(Nc1ccccc1C(=O)N1CCCC1)c1ccc(CN2CCc3ccccc3C2)cc1 [compound 7199725]
Classification: Criterion met
--
Compound: CCOC(=O)c1ccc(NC(=O)CSc2nnc(-c3ccco3)c(-c3ccco3)n2)cc1 [compound 7495334]
Classification: Criterion met

Hello, is Antibody Inhibition of the following compound strictly smaller than 50%? COC(=O)c1ccccc1-c1ccc(C=C2SC(=S)N(Cc3ccccc3)C2=O)o1 [C-13, reference compound]
Criterion not met

Follow-up entry: N#CC1=C(N)Oc2[nH]nc(-c3ccccc3)c2C1c1cccc(OC(=O)c2ccco2)c1 (stereo not drawn) [compound 6669449]
Criterion met

Follow-up entry: CCOC(=O)c1ccc(NC(=O)CC2C(=O)N(c3ccc(Cl)cc3)C(=S)N2Cc2cccnc2)cc1 (stereo not drawn) [compound 7722851]
Criterion met

Follow-up entry: COC(=O)c1ccc(NC(=O)CN(c2cccc(OC)c2)S(=O)(=O)c2ccccc2)cc1 [compound 7787455]
Criterion met

Follow-up entry: C=CCn1c(CNC(=O)c2cccc(C)c2)nnc1SCC(=O)Nc1cccc(C(=O)OC(C)C)c1 [compound 7783660]
Criterion met

Follow-up entry: Cc1ccc(-n2c3c(cc(C(=O)NC4CC(C)(C)NC(C)(C)C4)c2=O)C(=O)CC(C)(C)C3)cc1 [compound 6866968]
Criterion not met

Follow-up entry: COc1ccccc1C(=O)Nc1ccc(-c2nnc(SCC(=O)c3ccccc3)n2C)cc1 [compound 6282824]
Criterion not met

Follow-up entry: COc1cc(NS(=O)(=O)c2ccc(NC(C)=O)cc2)c(OC)cc1NC(=O)c1ccccc1 [compound 6853966]
Criterion not met

Follow-up entry: COc1cccc(C2C(=C(O)c3ccccc3)C(=O)C(=O)N2CCCN2CCOCC2)c1OC (stereo not drawn) [compound 6891745]
Criterion met
